Each recorded value in this set is attributed to the supplement of paper PMC10307832.

System: CAL-12T
method_summary: relative viability (nuclei count vs DMSO), 5 days (fraction); higher = more cells survive
applied_conditions: first compound 0.02 µM
readout_type: relative viability
Respond with the number and no other words.

compound	relative viability
CC(=O)O[C@@]12CO[C@@H]1C[C@H](O)[C@@]1(C)C(=O)[C@H](O)C3=C(C)[C@@H](OC(=O)[C@H](O)[C@@H](NC(=O)OC(C)(C)C)c4ccccc4)C[C@@](O)([C@@H](OC(=O)c4ccccc4)[C@H]21)C3(C)C [Docetaxel] + COc1cccc2cc(-c3nc([C@H]4CC[C@H](C(=O)O)CC4)n4ncnc(N)c34)[nH]c12 [OSI-027] (partner 0.5 µM)	0.111
CC(=O)O[C@@]12CO[C@@H]1C[C@H](O)[C@@]1(C)C(=O)[C@H](O)C3=C(C)[C@@H](OC(=O)[C@H](O)[C@@H](NC(=O)OC(C)(C)C)c4ccccc4)C[C@@](O)([C@@H](OC(=O)c4ccccc4)[C@H]21)C3(C)C [Docetaxel] + C[C@]1(O)C[C@@H](c2nc(-c3ccc4ccc(-c5ccccc5)nc4c3)c3c(N)nccn32)C1 [Linsitinib] (partner 1 µM)	0.14
CC(=O)O[C@@]12CO[C@@H]1C[C@H](O)[C@@]1(C)C(=O)[C@H](O)C3=C(C)[C@@H](OC(=O)[C@H](O)[C@@H](NC(=O)OC(C)(C)C)c4ccccc4)C[C@@](O)([C@@H](OC(=O)c4ccccc4)[C@H]21)C3(C)C [Docetaxel] + COc1cc2c(Oc3ccc(NC(=O)C4(C(=O)Nc5ccc(F)cc5)CC4)cc3F)ccnc2cc1OCCCN1CCOCC1 [Foretinib] (partner 0.25 µM)	0.163

# next compound below
I looked up CC(=O)O[C@@]12CO[C@@H]1C[C@H](O)[C@@]1(C)C(=O)[C@H](O)C3=C(C)[C@@H](OC(=O)[C@H](O)[C@@H](NC(=O)OC(C)(C)C)c4ccccc4)C[C@@](O)([C@@H](OC(=O)c4ccccc4)[C@H]21)C3(C)C [Docetaxel] + C[C@@H](Oc1cc(-c2cnn(C3CCNCC3)c2)cnc1N)c1c(Cl)ccc(F)c1Cl [Crizotinib] (partner 1 µM) and its relative viability for CAL-12T was 0.096

---

Test system: EPLC-272H
method_summary: relative viability (nuclei count vs DMSO), 5 days (fraction); higher = more cells survive
applied_conditions: first compound 0.08 µM
readout_type: relative viability
Respond with the number and no other words.

molecule	relative viability
O=c1[nH]c2ccccc2n1C1CCN(CCCC(c2ccc(F)cc2)c2ccc(F)cc2)CC1 [Pimozide] + CS(=O)(=O)N1CCN(Cc2cc3nc(-c4cccc5[nH]ncc45)nc(N4CCOCC4)c3s2)CC1 [Pictilisib] (partner 1 µM)	0.302

# next molecule below
The recorded relative viability for entry O=c1[nH]c2ccccc2n1C1CCN(CCCC(c2ccc(F)cc2)c2ccc(F)cc2)CC1 [Pimozide] + Cc1nc(NC(=O)N2CCC[C@H]2C(N)=O)sc1-c1ccnc(C(C)(C)C(F)(F)F)c1 [Alpelisib] (partner 2 µM) equals 0.838

---

System: NCI-H2009
method_summary: relative viability (nuclei count vs DMSO), 5 days (fraction); higher = more cells survive
applied_conditions: first compound 0.1265 µM
Quick reference for relative viability among some compounds
Respond with the number and no other words.

Example compounds with recorded relative viability:
compound	readout_type	endpoint_value
Cc1sc2c(c1C)C(c1ccc(Cl)cc1)=N[C@@H](CC(=O)OC(C)(C)C)c1nnc(C)n1-2 [JQ1] + CC(C)C[C@H](NC(=O)[C@H](Cc1ccccc1)NC(=O)c1cnccn1)B(O)O [Bortezomib] (partner 0.002 µM)	relative viability	0.526
Cc1sc2c(c1C)C(c1ccc(Cl)cc1)=N[C@@H](CC(=O)OC(C)(C)C)c1nnc(C)n1-2 [JQ1] + Cc1nc(Nc2ncc(C(=O)Nc3c(C)cccc3Cl)s2)cc(N2CCN(CCO)CC2)n1 [Dasatinib] (partner 0.075 µM)	relative viability	0.156
Cc1sc2c(c1C)C(c1ccc(Cl)cc1)=N[C@@H](CC(=O)OC(C)(C)C)c1nnc(C)n1-2 [JQ1] + CS(=O)(=O)CCNCc1ccc(-c2ccc3ncnc(Nc4ccc(OCc5cccc(F)c5)c(Cl)c4)c3c2)o1 [Lapatinib] (partner 2 µM)	relative viability	0.412

# next compound below
I looked up Cc1sc2c(c1C)C(c1ccc(Cl)cc1)=N[C@@H](CC(=O)OC(C)(C)C)c1nnc(C)n1-2 [JQ1] + O=C(CCCCCCC(=O)Nc1ccccc1)NO [Vorinostat] (partner 1 µM) and its relative viability for NCI-H2009 was 0.444
